We begin with a simple list: items and their reported Number of TLC spots.
- Assay name: Stability in acidic and basic conditions (TLC)
- Type: physicochemical
- Measurement conditions: acidic conditions, 2 h; 1 = stable
Number, no unit, nothing else.

Please review the following examples before continuing.
O=C1NC(N2CCC(N3CCOCC3)CC2)=N/C1=C\c1cccc(Oc2ccccc2)c1 [Compound 9] | 2
Cl.O=C1N=C(N2CCC(N3CCOCC3)CC2)N/C1=C\c1cccc2ccccc12 [Compound 11] | 1
O=C1NC(N2CCC(N3CCOCC3)CC2)=N/C1=C\c1ccc(Oc2ccccc2)cc1 [Compound 10] | 1

Q: Recall and state the measured Number of TLC spots for NC1=N/C(=C\c2ccc(-c3ccccc3)cc2)C(=O)N1CCCN1CCOCC1 [Compound 15] .
Result: 2

Q: Recall and state the measured Number of TLC spots for NC1=N/C(=C\c2ccc3c(c2)Cc2ccccc2-3)C(=O)N1CCCN1CCOCC1 [Compound 19] .
Result: 1

The measured values listed here are drawn from paper PMC7922564.
